measuredOn: h-NAAA (Homo sapiens, UniProt Q02083)
Construct: made in house; host or cells: HEK-293 cells stably overexpressing human NAAA; enzyme-enriched (lysosomal) lysate
Sequence (Q02083 29-125 limits assumed): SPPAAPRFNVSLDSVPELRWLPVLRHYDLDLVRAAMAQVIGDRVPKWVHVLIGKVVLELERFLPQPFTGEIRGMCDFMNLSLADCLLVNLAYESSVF
Sequence (Q02083 126-359 limits assumed): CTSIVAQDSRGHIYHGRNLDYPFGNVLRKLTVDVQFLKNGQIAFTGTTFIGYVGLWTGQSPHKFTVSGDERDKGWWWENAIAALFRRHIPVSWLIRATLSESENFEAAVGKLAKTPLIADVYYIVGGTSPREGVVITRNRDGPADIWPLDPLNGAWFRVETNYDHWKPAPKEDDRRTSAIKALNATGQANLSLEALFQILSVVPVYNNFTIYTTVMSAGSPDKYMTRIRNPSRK
assayOverview: Fluorogenic human-NAAA assay (h-NAAA, fluo.)
Format: biochemical
conditions: LipE = pIC50 – c Log P (h-NAAA)
Decide using LipE alone. Strictly below 6: 1. Equal to or above 6: 0.

Lab note: confirm whether the reported LipE for this compound is below 6, equality not counting. compound: `Cc1n[nH]c(C)c1S(=O)(=O)N1CCC(Oc2cnccn2)CC1`
0

Lab note: confirm whether the reported LipE for this compound is below 6, equality not counting. compound: `CCCCc1ccc(O[C@H]2C[C@H]3CC[C@@H](C2)N3S(=O)(=O)c2c(C)n[nH]c2C)cc1`
1

Lab note: confirm whether the reported LipE for this compound is below 6, equality not counting. compound: `CCOCc1cnc(O[C@H]2C[C@H]3CC[C@@H](C2)N3S(=O)(=O)c2c(C)n[nH]c2C)cn1`
0

Lab note: confirm whether the reported LipE for this compound is below 6, equality not counting. compound: `CCOCc1ccc(O[C@H]2C[C@H]3CC[C@@H](C2)N3S(=O)(=O)c2c(C)n[nH]c2C)cc1`
1

Lab note: confirm whether the reported LipE for this compound is below 6, equality not counting. compound: `CCCOc1ccc(O[C@H]2C[C@H]3CC[C@@H](C2)N3S(=O)(=O)c2c(C)n[nH]c2C)cc1`
1
